system: M. tuberculosis H37Rv growth inhibition, no glycerol; assay: M. tuberculosis growth inhibition, confirmation, H37Rv, purified and synthesized compounds (AID 493181)
Please provide measured IC50 for the entries that follow.

// IC50 value for CCc1ccc(/C=C2/C(=O)N(C)C(=S)N2CC(=O)OC)s1 : 2.95 µM

So for CCC(C)Nc1ccc(NC(C)CC)cc1 (stereo unspecified) , the logged IC50 turned out to be 1.1 µM

For COC(=O)C1CC(=O)N(c2ccc(OCc3ccccc3Cl)cc2)C1 (stereo unspecified) the molecule record lists IC50 as 0.83 µM

Item: COC(=O)C(C)Oc1ccc(-c2nccc(-c3ccccn3)n2)cc1 (stereo unspecified) | IC50: 1.49 µM

So, CCOC(=O)C(C)Sc1ncnc2c1nnn2-c1ccc(F)cc1 (stereo unspecified) ? Its IC50 was 1.38 µM

IC50 reading for O=C(/C=C/c1ccccc1)N1CCN(CCN2C(=O)c3cccc4cccc(c34)C2=O)CC1 : 3.17 µM

----------
Answer each item with its documented IC50.
system: M. tuberculosis H37Rv growth inhibition, no glycerol; assay: M. tuberculosis growth inhibition, confirmation, H37Rv, purified and synthesized compounds (AID 493181)
Where a SMILES comes first, the peptide text is derived from it. The star is where a group is joined. Cbz = O=C(OCc1ccccc1)*

According to the records, this compound COC(=O)c1cc(=O)n(-c2ccc(F)cc2)c(=Nc2ccc(F)cc2)s1 displays IC50 of < 0.2 µM

Per the record, S=c1nc[nH]c2nc[nH]c12 has IC50 of 1.5 µM

Item: CC(=NCc1ccc2c(c1)OCO2)C1=C(O)c2ccccc2C1=O | IC50: < 0.2 µM

Recorded result, Cc1nn2c(NCc3ccccn3)cc(C(C)C)nc2c1-c1ccccc1 , IC50: 1.48 µM

Per the record, Cc1cccc(/C=C/C(=O)c2ccc([N+](=O)[O-])o2)c1 has IC50 of < 0.2 µM

So, Cc1nc(SCC(=O)NC2CCCCC2)[nH]c(=O)c1C ? Its IC50 was < 0.2 µM

Entry CCOC(=O)COc1ccc(/C=C2\NC(=S)N(CC)C2=O)cc1 ; IC50 = 1.93 µM

Recorded IC50 (compound Cc1ccc(NC(=O)C2C3/C=C\CCCCC32)cc1C (stereo not drawn) ): 1.48 µM

get_value(item= CCOC(=O)COn1c2c(c3c4no[n+]([O-])c4ccc31)CCCC2 , readout=IC50) returns 2.14 µM

// sample O=C(CSc1nc2ccccc2c(=O)[nH]1)NCc1ccc(Cl)cc1 , its IC50 was 0.39 µM

Given item COC(=O)CCc1nc2c(C#N)c(-c3ccc(Cl)cc3)ccn2n1 , the value recorded as its IC50 is 0.76 µM

For this compound ( CCOC(=O)CNC(=O)[C@H](Cc1ccccc1)NC(=O)OCc1ccccc1 (Cbz-Phe-Gly-OEt) ), measured IC50 is 1.41 µM

Notebook: c1ccc(/N=C2\N=C(Nc3ccccn3)c3ccccc32)nc1 , IC50 read as < 0.2 µM

// IC50 value for O=C1C(Br)=Cc2cccc3cccc1c23 : < 0.2 µM

Briefly, IC50 measured for O=C(CSc1nc2ccccc2c(=O)[nH]1)NC1CCCCC1 : < 0.2 µM

Sure, the documented IC50 for COc1cc(NC(=O)C/C(C)=N/NC(=O)c2ccccn2)c(OC)cc1Cl is 3.69 µM

Given item CNc1nc(SCc2ccccc2Cl)nc2c1CCCC2 , the value recorded as its IC50 is < 0.2 µM

# compound O=C(NCC(c1cccs1)N1CCOCC1)c1cc([N+](=O)[O-])cc([N+](=O)[O-])c1 (stereo not drawn) ; its IC50 = < 0.2 µM

Looking up Cc1ccc2c(c1)c(C1=c3ccccc3=NC1=O)c(O)n2C , I found its IC50 recorded as 0.84 µM

Briefly, IC50 measured for Cc1ccc2ccc3ccc(C)nc3c2n1 : < 0.2 µM

Briefly, IC50 measured for CCOC(=O)c1ccc(NC(=O)Cn2ncc(Cl)c(Cl)c2=O)cc1 : < 0.2 µM

Short answer for CC(C)NC(=O)c1sc(=S)n2c1[nH]c(=O)c1ccc(C(=O)NCCc3ccc(Cl)cc3)cc12 : IC50 was < 0.2 µM

Consider O=C(/C=C\c1cccs1)N1CCN(Cc2ccc3c(c2)OCO3)CC1 . Its measured IC50 is < 0.2 µM
